Data origin: PubChem BioAssay AID1863

Below, each entry is listed alongside its reported inhibition.
- Measurement description: PhoP-dependent GFP reporter repression – Salmonella Typhimurium, primary screen (AID 1863);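 note: 0% = low Mg2+ inducing control and 100% = high Mg2+ repressing control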
- Condition info: S. Typhimurium PhoP-regulated promoter GFP reporter, 4 h; at 50 µM; active compounds read high
The campaign covered roughly 300,000 compounds. About 480 (0.16%) were called active. The list is a sample of the results. Results with a measured potency or affinity are listed apart.
Property measured: inhibition (%)

- Compound: "CCO[C@@H]1OC(C(=O)N2CCN(Cc3ccc4c(c3)OCO4)CC2)=C[C@H](C2CCCCC2)[C@H]1CCCO"
  Quantity unit: "%"
  Assay value: 2.5
- Compound: "O=C(COc1ccc(S(=O)(=O)N2CCCCC2)cc1)Nc1ccccc1F"
  Quantity unit: "%"
  Assay value: -6.38
- Compound: "CCCCC(=O)NC(c1cccs1)c1cc(Cl)c2cccnc2c1O (configuration not stated)"
  Quantity unit: "%"
  Assay value: -0.21
- Compound: "CC(=O)NC(c1ccc2ccccc2c1)c1ccc2cccnc2c1O (configuration not stated)"
  Quantity unit: "%"
  Assay value: 56.5
- Compound: "O=C(O)COCC(=O)NCc1nc(-c2ccc(C(F)(F)F)cc2)no1"
  Quantity unit: "%"
  Assay value: -3.89
- Compound: "NC(N)=N/N=C/c1ccc(OCc2ccccc2)cc1"
  Quantity unit: "%"
  Assay value: 17.1
- Compound: "CCOC(=O)CCCNC(=O)CSc1nnc(-c2ccccc2)c(-c2ccccc2)n1"
  Quantity unit: "%"
  Assay value: -8.06

###

- Measurement description: PhoP-dependent GFP reporter repression – Salmonella Typhimurium, primary screen (AID 1863);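 note: 0% = low Mg2+ inducing control and 100% = high Mg2+ repressing control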
- Condition info: S. Typhimurium PhoP-regulated promoter GFP reporter, 4 h; at 50 µM; active compounds read high
About 480 (0.16%) of roughly 300,000 compounds were called active. Not all results are given here. Measured potencies and affinities stand elsewhere.
Entries annotated with measured inhibition
Property measured: inhibition (%)

- Compound: "CCc1cc(C(=O)N(CCCOC)c2c(N)n(Cc3ccccc3)c(=O)[nH]c2=O)sc1C"
  Quantity unit: "%"
  Assay value: -2.51
- Compound: "COc1ccc(OC)c(S(=O)(=O)CC(O)CS(=O)(=O)c2ccccc2)c1 (stereo not given)"
  Quantity unit: "%"
  Assay value: -7.1
- Compound: "COc1ccc(CC2NCCC3(O)CCCCC23)cc1 (stereo not given)"
  Quantity unit: "%"
  Assay value: -4.79
- Compound: "Cc1ccc(C2=Nc3ccccc3NC(C)(c3ccc(C)o3)C2)o1 (stereo not given)"
  Quantity unit: "%"
  Assay value: -5.88
- Compound: "O=C(CN1CCOCC1)N/N=C/c1c(O)ccc2ccccc12"
  Quantity unit: "%"
  Assay value: 3.4

###

Listing: inhibition of selected compounds
- Measurement description: PhoP-dependent GFP reporter repression – Salmonella Typhimurium, primary screen (AID 1863);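 note: 0% = low Mg2+ inducing control and 100% = high Mg2+ repressing control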
- Condition info: S. Typhimurium PhoP-regulated promoter GFP reporter, 4 h; at 50 µM; active compounds read high
In all, about 300,000 compounds went through this assay and about 480 (0.16%) were called active. These entries were drawn from the full list. Measured potencies and affinities stand elsewhere.
Property measured: inhibition (%)

- Compound: "COCCn1c(SCC(=O)N2CCCCC2)nc2c([nH]c3ccccc32)c1=O"
  Assay value: -1.34
- Compound: "Cc1ccc(NCC(=O)N/N=C/c2ccc(C(=O)O)cc2)cc1"
  Assay value: 7.26
- Compound: "Cc1cccc(C(=O)Nc2nnc(SCC(=O)NC3CC3)s2)c1"
  Assay value: -3.7
- Compound: "CS(=O)(=O)N1CCc2ccc(NC(=O)C3CCCO3)cc2C1 (stereo not given)"
  Assay value: 4.89
- Compound: "O=C(Cc1nnc(NC(=O)Nc2ccccc2)s1)Nc1ccccc1"
  Assay value: 0.5

###

- Measurement description: PhoP-dependent GFP reporter repression – Salmonella Typhimurium, primary screen (AID 1863);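 note: 0% = low Mg2+ inducing control and 100% = high Mg2+ repressing control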
- Condition info: S. Typhimurium PhoP-regulated promoter GFP reporter, 4 h; at 50 µM; active compounds read high
The whole screen tested about 300,000 compounds, of which about 480 (0.16%) were called active. The list is a sample of the results. Results with a measured potency or affinity are listed apart.
Property measured: inhibition (%)

- Compound: "Cc1cc(C)n(CC(=O)N2c3ccccc3Sc3ccc(C(F)(F)F)cc32)n1"
  Assay value: -5.1
- Compound: "O=C(NCC1CCCO1)C(C(=O)c1ccc(F)cc1)n1ccccc1=O (stereo not drawn)"
  Assay value: 2.45
- Compound: "CCO[C@@H]1OC(C(=O)N2CCCCCCC2)=C[C@H](c2cn(C(C)=O)c3ccccc23)[C@H]1CCCO"
  Assay value: -5.2
- Compound: "COc1cccc(CC(=O)Nc2nc(-c3cccnc3)cs2)c1"
  Assay value: -6.4
- Compound: "Cc1ccc(NC(=O)Nc2ccccc2)cc1[N+](=O)[O-]"
  Assay value: -2.21
- Compound: "CC(C)n1c(SCC(=O)NC2CC2)nnc1-c1ccco1"
  Assay value: 3.76
- Compound: "CSCC[C@H](NC(=O)Nc1ccc(S(N)(=O)=O)cc1)C(=O)O"
  Assay value: -5.86
- Compound: "O=C(CCS(=O)(=O)c1ccccc1)Nc1ncc([N+](=O)[O-])s1"
  Assay value: 11.2

###

- Measurement description: PhoP-dependent GFP reporter repression – Salmonella Typhimurium, primary screen (AID 1863);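 note: 0% = low Mg2+ inducing control and 100% = high Mg2+ repressing control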
- Condition info: S. Typhimurium PhoP-regulated promoter GFP reporter, 4 h; at 50 µM; active compounds read high
In all, about 300,000 compounds went through this assay and about 480 (0.16%) were called active. These entries were drawn from the full list. Potency and affinity values are given separately.
Reported values of inhibition for individual entries

- Compound: "COC(=O)c1ccc(COc2ccc(/C=N/Nc3nc(C)cc(=O)[nH]3)cc2)cc1"
  Quantity unit: "%"
  inhibition: 2.45
- Compound: "COc1ccc(C(=O)N2CCN(Cc3ccccc3)CC2)cc1[N+](=O)[O-]"
  Quantity unit: "%"
  inhibition: -3.7
- Compound: "O=C(Nc1ccc(N2CCOCC2)c(Cl)c1)c1ccc(F)cc1"
  Quantity unit: "%"
  inhibition: -2.15
- Compound: "Cc1ccc(N2C(=O)N(CC(=O)N3CCOCC3)C(=O)C2C)cc1 (stereo unspecified)"
  Quantity unit: "%"
  inhibition: 2.04
- Compound: "OCCNCCCOc1ccc(Cl)cc1Br"
  Quantity unit: "%"
  inhibition: 9.05
- Compound: "O=[N+]([O-])c1cc2c(cc1CN1CCN(c3ccc(F)cc3)CC1)OCO2"
  Quantity unit: "%"
  inhibition: -3.23
- Compound: "NC(N)=NC(=S)Nc1ccc(Cl)cc1"
  Quantity unit: "%"
  inhibition: -3.56
- Compound: "Cc1cc2ncn(/N=C/c3ccc([N+](=O)[O-])s3)c2cc1C"
  Quantity unit: "%"
  inhibition: -6.99
- Compound: "COc1cccc(Cn2c(C3CC3)nc3ccc(NC(=O)c4ccco4)cc3c2=O)c1"
  Quantity unit: "%"
  inhibition: -9.67
- Compound: "CCCOC(=O)C[N+](C)(C)CCOC1CC2CCC1(C)C2(C)C (stereo unspecified)"
  Quantity unit: "%"
  inhibition: -23.2
- Compound: "COCc1cc(CN2CCCC2)c(O)c2ncccc12"
  Quantity unit: "%"
  inhibition: 0.6

###

- Measurement description: PhoP-dependent GFP reporter repression – Salmonella Typhimurium, primary screen (AID 1863);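 note: 0% = low Mg2+ inducing control and 100% = high Mg2+ repressing control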
- Condition info: S. Typhimurium PhoP-regulated promoter GFP reporter, 4 h; at 50 µM; active compounds read high
About 480 (0.16%) of roughly 300,000 compounds were called active. These entries were drawn from the full list. Potency and affinity values are given separately.
Property measured: inhibition (%)

- Compound: "Cc1c(O)ccc2c(O)c(NC(=O)c3ccc4c(c3)CCC(C)(C)O4)c(=O)oc12"
  Property measured: "inhibition"
  Quantity unit: "%"
  Assay value: -3.81
- Compound: "COc1ccc(F)c(CN2CCCC(CNS(=O)(=O)c3cccc4cccnc34)C2)c1 (stereo not given)"
  Property measured: "inhibition"
  Quantity unit: "%"
  Assay value: -5.85
- Compound: "Cc1ccccc1-c1nnc(SCCOc2ccc3c(C)cc(=O)oc3c2)o1"
  Property measured: "inhibition"
  Quantity unit: "%"
  Assay value: 0.64
- Compound: "Oc1ccccc1CNCc1ccccc1"
  Property measured: "inhibition"
  Quantity unit: "%"
  Assay value: 4.46
- Compound: "CN1CCCN(C(=O)c2c(F)cccc2Cl)CC1"
  Property measured: "inhibition"
  Quantity unit: "%"
  Assay value: -6.36

###

As shown below, each of these compounds has a reported inhibition value.
- Measurement description: PhoP-dependent GFP reporter repression – Salmonella Typhimurium, primary screen (AID 1863);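 note: 0% = low Mg2+ inducing control and 100% = high Mg2+ repressing control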
- Condition info: S. Typhimurium PhoP-regulated promoter GFP reporter, 4 h; at 50 µM; active compounds read high
The campaign covered roughly 300,000 compounds. About 480 (0.16%) were called active. Only a sample is shown. Results with a measured potency or affinity are listed apart.
Property measured: inhibition (%)

- Compound: "O=C(C[n+]1cc(-c2ccccc2)n2c1CCC2)N1c2ccccc2Sc2ccccc21"
  Assay value: 9.1
- Compound: "O=C(NOC(=O)c1ccccc1F)c1ccc(OC(F)F)cc1"
  Assay value: -1.76
- Compound: "CCn1c(CSc2nnc(-c3ccncc3)n2CCOC)nc2cc(C(=O)O)ccc21"
  Assay value: 1.32
- Compound: "Nc1nonc1C(=O)N/N=C/c1cc2c(cc1Br)OCO2"
  Assay value: 3.06
- Compound: "Oc1ccc(Cl)cc1CNc1ccccn1"
  Assay value: 14.1
- Compound: "Oc1ccc(Cl)cc1CNn1cnnc1"
  Assay value: 18.7
- Compound: "O=C(C[n+]1cc(-c2ccccc2)n2c1CCC2)Nc1nc(-c2ccccc2)cs1"
  Assay value: 2.36
- Compound: "CC1=C(C(=O)OC(C)C)C(c2ccsc2)NC(=O)N1C (configuration not stated)"
  Assay value: -5.45
- Compound: "Cc1ccc(S(=O)(=O)N(C)C)cc1NC(=O)COC(=O)COc1ccc2c(c1)CCC2"
  Assay value: -2.74
- Compound: "O=C(O)c1cccc(Nc2ncnc3sccc23)c1"
  Assay value: -0.32
- Compound: "CC(CC(=O)Nc1ccccc1)NCCCN1CCCC1=O (configuration not stated)"
  Assay value: -13.5
- Compound: "CCCc1nc2ccc(NC(=O)NCCC(=O)OCC)cc2c(=O)n1Cc1cccc(Cl)c1"
  Assay value: 6.26
